Data origin, for the record: patent US8415505B2

- Tested on: Human breast cancer cells MDA-MB231
- Protocol description: In vitro antitumor activity test (MTT), MDA-MB231
- Assay type: cell-based
- Test conditions: Homo sapiens, MDA-MB-231, 96 h, 4 days culture with drug, growth inhibition, read-out: IC50 (μmol/L) MDA-MB231
Cut-off 6 µmol/L on IC50: below means satisfied, at or above means not satisfied.

# Smiles repr, Label
data = [
    ("C=C1CCC(=Cc2ccccc2OC)C1=O", "not satisfied"),
    ("C=C1CCC(=Cc2ccccc2O)C1=O", "satisfied"),
    ("C=C1CCC(=Cc2ccc(OC)c(O)c2)C1=O", "satisfied"),
    ("C=C1CCC(=Cc2cc(C(C)(C)C)c(O)c(C(C)(C)C)c2)C1=O", "not satisfied"),
    ("C=C1CCC(=Cc2ccc(OCCC)cc2)C1=O", "not satisfied"),
    ("C=C1CCC(=Cc2ccc(OC)cc2OC)C1=O", "not satisfied"),
    ("C=C1CCC(=Cc2ccc(O)c(OC)c2)C1=O", "satisfied"),
    ("C=C1CCC(=Cc2cc(OC)c(OC)c(OC)c2)C1=O", "not satisfied"),
    ("C=C1CCC(=C(c2ccc(C)cc2)c2ccc(C)cc2)C1=O", "not satisfied"),
    ("C=C1CCC(=Cc2ccc(S(C)(=O)=O)cc2)C1=O", "satisfied"),
    ("C=C1CCC(=Cc2ccc3c(c2)OCO3)C1=O", "not satisfied"),
    ("C=C1CCC(=C(c2ccccc2)c2ccccc2)C1=O", "not satisfied"),
    ("C=C1CCC(=Cc2ccc(OC)cc2)C1=O", "not satisfied"),
]

====

- Test system: Human breast cancer cells MDA-MB231
- Protocol description: In vitro antitumor activity test (MTT), MDA-MB231
- Type: cell-based
- Test conditions: 4 days culture with drug, growth inhibition, read-out: IC50 (μmol/L) MDA-MB231
pIC50: −log10 of the molar value.
Item-by-item account of pIC50
Quantity measured: pIC50

# Compound, Quantity measured, Operator symbol, Observed measurement
records = [
    ("C=C1CCC(=C(c2ccc(F)cc2)c2ccc(F)cc2)C1=O [Example 27]", "pIC50", "<", 4.80),
    ("C=C1CCC(=Cc2ccc(N(C)C)cc2)C1=O [Example 11]", "pIC50", "=", 5.07),
]

====

Item-by-item account of pIC50
- Tested on: Human breast cancer cells MDA-MB231
- Protocol description: In vitro antitumor activity test (MTT), MDA-MB231
- Type: cell-based
- Test conditions: Homo sapiens, MDA-MB-231, 96 h, 4 days culture with drug, growth inhibition, read-out: IC50 (μmol/L) MDA-MB231
pIC50: −log10 of the molar value.

# Smiles repr, Measured target, Operator symbol, pIC50
data = [
    ("C=C1CCC(=Cc2ccc(OCC)cc2)C1=O", "Human breast cancer cells MDA-MB231", "=", 5.34),
    ("C=C1CCC(=Cc2ccc(OC)cc2O)C1=O", "Human breast cancer cells MDA-MB231", "=", 5.33),
    ("C=C1CCC(=Cc2ccc(OC)c(OC)c2)C1=O", "Human breast cancer cells MDA-MB231", "=", 5.59),
    ("C=C1CCC(=Cc2cc(OC)c(O)c(OC)c2)C1=O", "Human breast cancer cells MDA-MB231", "=", 5.46),
    ("C=C1CCC(=CCC(C)C)C1=O", "Human breast cancer cells MDA-MB231", "<", 4.80),
    ("C=C1CCC(=Cc2cccc(OC)c2OC)C1=O", "Human breast cancer cells MDA-MB231", "<", 4.80),
]
